test system: Notch1; assay: Notch inhibition assay in co-culture format (CHO-K1 N1-Gal4 with HEK293T expressing WT DLL4); format: cell-based; settings: co-culture 1:1 with HEK293T expressing WT DLL4; read-out: IC50 for inhibition of Notch1 activation by cellular DLL4
readout_kind: IC50
Show the value, then the unit it is measured in.

In: Name the recorded IC50 of the compound listed here: C[C@H](NC(=O)Cc1cc(F)cc(F)c1)C(=O)N[C@H](C(=O)OC(C)(C)C)c1ccccc1 [DAPT, reference compound]
Out: 100 nM
